Documented TGI across a set of compounds
# System: MDA-N
# TEST NAME: NCI tumour cell line growth inhibition, 48 h
OBSERVATION TYPE: TGI

COMPOUND	EXPERIMENTAL VALUE
C=CCOC(=O)CCCCCCCCCCCCCCCOC(=O)C1=C(CCC[C@@H](C)O[Si](C)(C)C(C)(C)C)NC(=O)N2[C@H](CC3(CC/C=C\[C@H](CC)O[Si](C(C)C)(C(C)C)C(C)C)OCCO3)CC[C@H]12	> 100 µM
CC[C@@]1(O)C(=O)OCc2c1cc1n(c2=O)Cc2cc3c(N)cccc3nc2-1	> 33.8 µM
O=C1OI(C#Cc2ccccc2)c2ccccc21	30.6 µM
Cc1cc(NC(=O)NC(=O)c2ccccc2N(C)C)ccc1Oc1ncc(Br)cn1	0.281 µM
[N-]=[N+]=C(C(=O)C(=[N+]=[N-])C(=O)c1ccccc1)C(=O)c1ccccc1	> 100 µM
O=C1/C(=C\c2cccc(Oc3ccccc3)c2)SC(c2ccccc2)N1c1cccc([N+](=O)[O-])c1 (centres undefined)	> 100 µM
CCCCCCCCCCCCCCCCS(=O)(=O)c1ccc(NN)cc1	> 10 µM
Cn1c(=O)sc2cc(C(=S)N3CCOCC3)ccc21	> 100 µM
O=C1CSC2(CC(/C=C/c3ccccc3Br)=NN2c2cccc(S(=O)(=O)O)c2)N1c1nc2ccccc2s1 (centres undefined)	> 100 µM
CC(C)(C)OC(=O)N1CCc2c(n(C/C=C/c3ccccc3)[nH]c2=O)C1	> 100 µM
C/C(=N\Nc1ccccc1)C(CN(C)C)C(c1ccccc1)c1c(O)c2ccccc2oc1=O (centres undefined)	> 100 µM
CO[P@]1(=O)O[C@@H](c2ccccc2)[C@H](O)[C@@]1(O)c1ccccc1	> 100 µM
COC(=O)C(NC(=O)CSc1nnc(COc2ccc(Cl)cc2)n1-c1ccccc1)C(C)C (centres undefined)	32.1 µM
O=C(CSc1nc2ccc(I)cc2c(=O)n1Cc1ccccc1)NN1C(=O)CCC1=O	> 100 µM
CNc1ccc(Cl)cc1S(=O)(=O)c1ccccc1[N+](=O)[O-]	> 100 µM
O=C(O)C1C(C(=O)O)C2(Cl)C(Cl)=C(Cl)C1(Cl)C2(Cl)Cl.[Cd] (centres undefined)	22.6 µM
Cc1ccc(S(=O)(=O)N/N=C2\C3CC4CC(C3)C2C4)cc1 (centres undefined)	> 100 µM
C=C[C@@](C)(/C=C/c1ccc(O)cc1)CCC=C(C)C	31 µM
CCCNC(=O)CCC(C)[C@H]1CCC2C3C(C[C@H](OC(C)=O)[C@@]21C)[C@@]1(C)CCC2(C[C@H]1C[C@H]3OC(C)=O)OOC1(CCCCC1)OO2 (some centres undefined)	16.6 µM

* * *

# Tested on: OVCAR-3 ovarian
# TEST NAME: NCI tumour cell line growth inhibition, 48 h
OBSERVATION TYPE: log10 of TGI (log10 of the value in µM)

COMPOUND	log10 of TGI
Cc1cc(NC(=O)NC(=O)c2ccccc2N(C)C)ccc1Oc1ncc(Br)cn1	1.05
C=C[C@@](C)(/C=C/c1ccc(O)cc1)CCC=C(C)C	1.51
CCCNC(=O)CCC(C)[C@H]1CCC2C3C(C[C@H](OC(C)=O)[C@@]21C)[C@@]1(C)CCC2(C[C@H]1C[C@H]3OC(C)=O)OOC1(CCCCC1)OO2 (stereo partly drawn)	0.72
C[C@@H]1C/C=C\C(=O)O[C@H](/C=C/C#C/C=C/C(C)(C)[C@@H](O)c2cccc(O)c2Br)[C@@H](C)/C=C/[C@H](C)C[C@H](OC(N)=O)C1	1.20
NC(N)=N/N=C/c1c(-c2ccc(Cl)c([N+](=O)[O-])c2)nc2n1CCS2	0.59
CC[C@H](C)[C@H](NC(=O)[C@H]1CCCCN1C)C(=O)N(C)[C@H](C[C@@H](OC(C)=O)c1nc(C(=O)N[C@@H](Cc2ccccc2)C[C@H](C)C(=O)OC)cs1)C(C)C	-1.94
NS(=O)(=O)c1cc(S(N)(=O)=O)c(NC(=O)N(c2ccccc2)c2ccccc2)c(Cl)c1Cl	1.69
O=c1[nH]c2cc(Cl)c(Cl)cc2n2cc3ccccc3c12	1.51

* * *

# Tested on: LOX IMVI melanoma
# TEST NAME: NCI tumour cell line growth inhibition, 48 h
Documented TGI across a set of compounds
OBSERVATION TYPE: TGI

COMPOUND	EXPERIMENTAL VALUE
O=C1OI(C#Cc2ccccc2)c2ccccc21	> 100 µM
O=C(OCc1ccccc1C1CSCSC1)c1cc(C(=O)OCc2ccccc2C2CSCSC2)c(C(=O)OCc2ccccc2C2CSCSC2)cc1C(=O)OCc1ccccc1C1CSCSC1	> 100 µM
CCc1cccc(CC)c1/C=C/c1cncc(C(=O)NC)c1	> 25 µM
COc1ccc(C2NCCc3c2[nH]c2ccccc32)cc1 (stereo unspecified)	> 100 µM
CCC(=O)c1cc([N+](=O)[O-])c(Br)s1	3.46 µM
COc1cc(O)c(C(C)=O)c(O)c1	> 100 µM
CC(C)(C)c1c(C(C)(C)C)c(=O)c1=O	> 100 µM
Cc1cc(S(=O)(=O)O)c(NC(=O)c2oc3cc(O)ccc3c(=O)c2C)cc1Cl	> 100 µM
Nc1ncc(/C=N/O)c(NCC2(CO)CC(CCc3ccccc3)C2)n1 (stereo unspecified)	22.3 µM
O=c1[nH]c2cc(Cl)c(Cl)cc2n2cc3ccccc3c12	31 µM
C[C@@H]1C/C=C\C(=O)O[C@H](/C=C/C#C/C=C/C(C)(C)[C@@H](O)c2cccc(O)c2Br)[C@@H](C)/C=C/[C@H](C)C[C@H](OC(N)=O)C1	0.0447 µM

* * *

# Tested on: CCRF-CEM leukemia
# TEST NAME: NCI tumour cell line growth inhibition, 48 h

COMPOUND	BOUND SIGN	TGI (µM)
O=c1c2c(nc3n1CCC3)sc1c(O)c(Br)ccc12	=	45.1
C=CCOC(=O)CCCCCCCCCCCCCCCOC(=O)C1=C(CCC[C@@H](C)O[Si](C)(C)C(C)(C)C)NC(=O)N2[C@H](CC3(CC/C=C\[C@H](CC)O[Si](C(C)C)(C(C)C)C(C)C)OCCO3)CC[C@H]12	>	100
O=S1(=O)OCCOS(=O)(=O)C1Cc1nc2ccccc2[nH]1	>	100
CC(c1ccccc1)N1CC(C)(c2ccccc2)N(O)C(c2ccccc2)C1C (stereo not given)	=	31
NC(=O)C1=CC2C3C=CC2(O)C(=O)OC3O1 (stereo not given)	=	9.8

* * *

Documented TGI across a set of compounds
# Tested on: KM20L2 colon
# TEST NAME: NCI tumour cell line growth inhibition, 48 h

COMPOUND	BOUND SIGN	TGI (µM)
Cc1cc(=O)[nH]c(NNC(C#N)c2ccc([N+](=O)[O-])cc2)n1 (centres undefined)	>	100
CC(c1ccccc1)N1CC(C)(c2ccccc2)N(O)C(c2ccccc2)C1C (centres undefined)	=	44.7
O=c1c2c(nc3n1CCC3)sc1c(O)c(Br)ccc12	=	35.9
C/C(=C\Cc1cc(O)ccc1O)CCc1c(C)cc(O)c(C=O)c1C	>	100

* * *

Read-out record for U251 CNS: GI50
OBSERVATION TYPE: GI50

MOLECULE	EXPERIMENTAL VALUE
C=CC1=CC(C)C[C@]1(O)C(=O)OC (some centres undefined)	> 100000 nM
C[C@@H]1C/C=C\C(=O)O[C@H](/C=C/C#C/C=C/C(C)(C)[C@@H](O)c2cccc(O)c2Br)[C@@H](C)/C=C/[C@H](C)C[C@H](OC(N)=O)C1	70.6 nM
CC1(C)C2CCC13C(=O)C1OC3(C2)C2C(=O)c3c(O)cccc3C(=O)C12 (centres undefined)	640 nM
COc1ccc2c(c1)nc1n2C(c2ccc(F)cc2)SC1 (centres undefined)	27900 nM
Nc1ccn([C@@H]2C(F)=C(CO)[C@@H](O)[C@H]2O)c(=O)n1	2780 nM
CC12OC(C(=O)C13CCC3)C1C(=O)c3ccccc3C(=O)C12 (centres undefined)	55000 nM
COc1ccc2cc(-c3c(-c4ccncc4)nc(-c4ccc(S(C)=O)cc4C)n3C)ccc2c1 (centres undefined)	> 23200 nM
Cc1ccc(-n2c3c(c4c(CN5CCOCC5)c(O)ccc42)CCc2ccccc2C3=O)cc1	> 100000 nM
COc1ccc(NC(=O)c2sc3nc4c(cc3c2N)CCCC4)cc1	652 nM
C=C(CNCCc1ccc(O)cc1)[C@@H]1CC[C@]2(CO)CC[C@]3(C)[C@H](CC[C@@H]4[C@@]5(C)CCC(N)C(C)(C)[C@@H]5CC[C@]43C)[C@@H]12 (some centres undefined)	917 nM
Cc1cc(=O)oc2cc(OCCn3c(C)nn(-c4ccc(Cl)cc4)c3=O)ccc12	4180 nM
CN(C)C(=O)SC1=C(c2c(Cl)cccc2Cl)C(=O)c2ccccc21	8330 nM
Cc1cc(NC(=O)NC(=O)c2ccccc2N(C)C)ccc1Oc1ncc(Br)cn1	436 nM
CN(C)CCCC1(c2ccc(F)cc2)OCc2cc(-c3cncc4ccccc34)ccc21 (centres undefined)	2220 nM
CC(C)(CO)N=Cc1ccccc1[O-].CC(C)(CO)N=Cc1ccccc1[O-].[Co+2]	74900 nM
COc1ccc(-c2cc(/C=C/C(=O)c3cc(OC)c(OC)c(OC)c3)[nH]n2)cc1OC	1240 nM
COc1ccccc1/C=C\C(=O)c1ccccc1	4250 nM
CCCn1cnc2c(SCc3ccccc3)nc(N)nc21	41400 nM
CN(C)C/C=C/C(=O)Nc1ccc(C(=O)N2CCC[C@@H](Nc3ncc(Cl)c(-c4c[nH]c5ccccc45)n3)C2)cc1	306 nM
